- Tested on: NCI-H23 lung
- protocol: NCI tumour cell line growth inhibition, 48 h
metric-name: TGI

Request: TGI, test system NCI-H23 lung, entry Cc1nc(N)nc(N)c1N1CCN(Cc2ccccc2)CC1
> 100 µM

Same for CC(C)c1ccc(O)c(=O)cc1
> 74 µM

Same for CC1=C(c2cc(C(=O)Nc3cccc(C(F)(F)F)c3)nc(NC#N)n2)Sc2ccccc2N1
> 100 µM

Same for NCC(=O)CCC(=O)O
> 100 µM

Same for CC(C)(C)OC(=O)N1C/C=C\C(=O)C2(OCCO2)c2ccccc21
> 100 µM

Same for CCCCC#Cc1cccc(=O)o1
> 100 µM

Same for Oc1ccc(SCc2ccc(NCc3ccccc3)cc2)cc1
> 100 µM

Same for Cc1ccsc1/C=N/Nc1ccccn1
> 100 µM

Same for COc1c(Cl)c(Cl)c(OC)c2c1C(=O)C=CC2=O
> 100 µM

Same for C[C@@]12CCC[C@@](C)(C(=O)O)C1CC[C@@]13CC(=O)[C@@](CO)(CCC12)C3 (some centres not stated)
> 100 µM

Same for COc1cc([C@@H]2c3cc4c(cc3[C@@H](Nc3ccc(NC(=O)c5cc(NC(=O)c6cc([N+](=O)[O-])cn6C)cn5C)cc3)[C@H]3COC(=O)[C@H]23)OCO4)cc(OC)c1O
> 48.7 µM

Same for COc1ccc(-c2nn(-c3cccc(NC(=O)Nc4cccc(C(F)(F)F)c4)c3)cc2-c2ccncc2)cc1Cl
> 100 µM

Same for Nc1ccc(-c2nc3cc(F)ccc3s2)cc1
> 46.5 µM

Same for CCc1cccc(C(C)CC)c1NC(=O)CC1C(=O)Nc2ccccc2S1=O (configuration not stated)
> 100 µM

Same for O=C(O/N=C1/CCCC/C1=C\c1ccccc1)c1ccc(Cl)cc1
> 100 µM

Same for COc1ccc(-c2c(C#N)c(N)nc3c2CCCc2ccc(F)cc2-3)cc1OC
> 100 µM

Same for O=c1c(S(=O)(=O)Oc2ccccc2)coc2cc(F)ccc12
> 100 µM

Same for O=C(c1ccccc1)n1[nH]c(=O)n(-c2ccc(Cl)cc2)c1=O
> 100 µM

Same for COC(=O)C(=O)C(C#N)c1ccc(Cl)c(Cl)c1 (configuration not stated)
> 100 µM

Same for Cc1nn(-c2ccccc2)c2c1N=C(C(=O)O)CC(c1ccccc1)=N2
> 10 µM

Same for COc1cc(C2C3=C(N=C4SC(C(C)=O)=C(C)N42)c2ccccc2CC3)cc(OC)c1OC (configuration not stated)
> 100 µM

Same for Cc1ccc(Nc2nc(NS(=O)(=O)c3cc(C)c(Cl)cc3S)n[nH]2)cc1
> 100 µM
